Target: T1, hHER3 ECD (human HER3 extracellular domain) (human, UniProt P21860 20-643)
T1 construct: also called recombinant HER3-ECD
Test: SPR off rate on HER3-ECD
ASSAY_ENDPOINT: koff (s⁻¹)

Solved cases below.
[[record]]
binder = "HER3MS00076 (VHH, 17B05 + A74S, N83R, Q108L; also called HER3MS0076; 17B05 basic variant) VHH: EVQLVESGGGLVQPGGSLRLSCAASGSIGGLNAMAWYRQAPGKERELVAGIFGVGSTRYADSVKGRFTISRDISKNTVFLQMNSLRSEDTAVYYCRMSSVTRGSSDYWGQGTLVTVSS"
assay_endpoint = "koff"
numeric_result = 0.00017

[[record]]
binder = "HER3MS00085 (VHH, 17B05 basic + S84A; also called HER3MS0085) VHH: EVQLVESGGGLVQPGGSLRLSCAASGSIGGLNAMAWYRQAPGKERELVAGIFGVGSTRYADSVKGRFTISRDISKNTVFLQMNSLRAEDTAVYYCRMSSVTRGSSDYWGQGTLVTVSS"
assay_endpoint = "koff"
numeric_result = 0.00019

[[record]]
binder = "HER3MS00080 (VHH, 17B05 basic + I73N + F79Y; also called HER3MS0080) VHH: EVQLVESGGGLVQPGGSLRLSCAASGSIGGLNAMAWYRQAPGKERELVAGIFGVGSTRYADSVKGRFTISRDNSKNTVYLQMNSLRSEDTAVYYCRMSSVTRGSSDYWGQGTLVTVSS"
assay_endpoint = "koff"
numeric_result = 0.00018


[1] HER3MS00084 (VHH, 17B05 basic + S84P; also called HER3MS0084) VHH: EVQLVESGGGLVQPGGSLRLSCAASGSIGGLNAMAWYRQAPGKERELVAGIFGVGSTRYADSVKGRFTISRDISKNTVFLQMNSLRPEDTAVYYCRMSSVTRGSSDYWGQGTLVTVSS
[2] HER3MS00083 (VHH, also called HER3MS0083) VHH: EVQLVESGGGLVQPGGSLRLSCAASGSIGGLNAMAWYRQAPGKERELVAGIFGVGSTRYADSVKGRFTISRDNSKNTVYLQMNSLRSEDTAVYYCAMSSVTRGSSDYWGQGTLVTVSS
q: Returns the identifier with the smallest measured koff among 1 and 2 . Please indicate the selected item by its label.
a: 1
(1: 0.00018 s⁻¹, 2: 0.00084 s⁻¹)
